The entries below come with measured EC50 values attached.
TARGET OR TEST SYSTEM: recombinant human GluN1/GluN2A receptor (Homo sapiens, UniProt Q05586+Q12879)
Construct: expressed in transfected cells; host or cells: HEK293, tetracycline-inducible expression
Sequence (Q12879 23-1464, other chains not shown): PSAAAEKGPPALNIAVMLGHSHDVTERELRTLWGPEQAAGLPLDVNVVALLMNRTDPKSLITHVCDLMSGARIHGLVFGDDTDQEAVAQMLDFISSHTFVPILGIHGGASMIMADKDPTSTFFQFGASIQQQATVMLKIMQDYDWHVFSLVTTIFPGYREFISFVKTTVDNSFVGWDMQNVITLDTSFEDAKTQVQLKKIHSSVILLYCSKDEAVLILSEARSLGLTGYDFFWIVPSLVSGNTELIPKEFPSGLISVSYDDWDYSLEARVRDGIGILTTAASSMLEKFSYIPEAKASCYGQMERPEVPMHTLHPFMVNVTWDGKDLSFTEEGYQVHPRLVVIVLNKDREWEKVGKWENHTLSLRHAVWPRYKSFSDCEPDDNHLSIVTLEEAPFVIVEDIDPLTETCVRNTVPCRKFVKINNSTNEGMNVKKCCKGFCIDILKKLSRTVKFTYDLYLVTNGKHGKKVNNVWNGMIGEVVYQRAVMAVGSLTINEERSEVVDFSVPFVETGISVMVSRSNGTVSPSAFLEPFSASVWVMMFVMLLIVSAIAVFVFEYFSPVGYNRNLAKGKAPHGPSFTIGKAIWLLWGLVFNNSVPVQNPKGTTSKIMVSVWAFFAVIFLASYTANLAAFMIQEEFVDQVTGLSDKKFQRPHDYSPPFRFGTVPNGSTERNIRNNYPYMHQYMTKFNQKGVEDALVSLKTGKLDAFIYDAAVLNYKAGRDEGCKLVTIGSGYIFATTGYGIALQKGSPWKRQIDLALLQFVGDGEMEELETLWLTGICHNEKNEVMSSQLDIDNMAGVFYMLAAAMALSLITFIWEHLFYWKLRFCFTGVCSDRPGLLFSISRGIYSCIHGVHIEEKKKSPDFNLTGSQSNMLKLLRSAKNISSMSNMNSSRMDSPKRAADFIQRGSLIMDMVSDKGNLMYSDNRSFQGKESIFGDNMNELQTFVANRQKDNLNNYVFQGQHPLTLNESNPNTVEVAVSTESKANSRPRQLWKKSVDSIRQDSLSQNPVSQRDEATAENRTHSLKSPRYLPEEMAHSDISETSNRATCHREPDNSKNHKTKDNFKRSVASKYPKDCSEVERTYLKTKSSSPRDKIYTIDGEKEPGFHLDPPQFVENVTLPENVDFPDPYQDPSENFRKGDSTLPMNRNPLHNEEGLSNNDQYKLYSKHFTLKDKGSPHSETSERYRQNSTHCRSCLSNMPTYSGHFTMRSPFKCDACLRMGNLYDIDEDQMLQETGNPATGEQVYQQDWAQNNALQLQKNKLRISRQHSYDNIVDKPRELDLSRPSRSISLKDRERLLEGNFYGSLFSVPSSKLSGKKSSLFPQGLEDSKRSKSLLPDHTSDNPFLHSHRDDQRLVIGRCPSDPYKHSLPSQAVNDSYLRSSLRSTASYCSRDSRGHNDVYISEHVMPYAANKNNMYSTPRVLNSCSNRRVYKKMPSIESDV
TEST SUMMARY: Whole-cell patch clamp of mammalian cells (Syncropatch 384i), NMDA modulation
Format: cell-based
SETUP CONDITIONS: Table C-2; HEK293 cells, human GluN1/GluN2A; glutamate 1 μM / glycine 100 μM; -80 mV; peak amplitude increase; read-out: EC50

{"columns": ["SMILES", "EC50"],
 "data": [
  ["CC[C@]1(O)CC[C@]2(C)C3=CC[C@]4(C)[C@@H]([C@H](C)CC[C@@H](O)C(C)(C)C#N)CC[C@H]4[C@@H]3CC[C@H]2C1", "1 to 100 nM"],
  ["CC[C@]1(O)CC[C@@]2(C)[C@@H](CC[C@@H]3[C@@H]2CC[C@]2(C)[C@@H]([C@H](C)CC[C@@H](O)C(C)(C)C#N)CC[C@@H]32)C1", "1 to 100 nM"],
  ["C[C@H](CC[C@@H](O)C1(C#N)CC1)[C@H]1CC[C@H]2[C@@H]3CC[C@H]4C[C@@](C)(O)CC[C@]4(C)C3=CC[C@]12C", "1 to 100 nM"],
  ["CC[C@]1(O)CC[C@@]2(C)[C@@H](CC[C@@H]3[C@@H]2CC[C@]2(C)[C@@H]([C@H](C)CC[C@H](O)C4(C#N)CC4)CC[C@@H]32)C1", "100 to 500 nM"],
  ["C[C@H](CC[C@H](O)C1(C#N)CCC1)[C@H]1CC[C@H]2[C@@H]3CC=C4C[C@@](C)(O)CC[C@]4(C)[C@H]3CC[C@]12C", "1 to 100 nM"],
  ["CC[C@]1(O)CC[C@@]2(C)[C@@H](CC[C@@H]3[C@@H]2CC[C@]2(C)[C@@H]([C@H](C)CC[C@@H](O)CC#N)CC[C@@H]32)C1", "1 to 100 nM"],
  ["C[C@H](CC[C@H](O)C(C)(C)C#N)[C@H]1CC[C@H]2[C@@H]3CC[C@H]4C[C@@](C)(O)CC[C@]4(C)C3=CC[C@]12C", "1 to 100 nM"],
  ["CC[C@]1(O)CC[C@@]2(C)C(=CC[C@H]3[C@@H]4CC[C@H]([C@H](C)CC[C@H](O)C5(C#N)CC5)[C@@]4(C)CC[C@@H]32)C1", "100 to 500 nM"],
  ["C[C@H](CC[C@@H](O)C1(C#N)CCC1)[C@H]1CC[C@H]2[C@@H]3CC=C4C[C@@](C)(O)CC[C@]4(C)[C@H]3CC[C@]12C", "1 to 100 nM"],
  ["CC[C@H](C#N)[C@H](O)CC[C@@H](C)[C@H]1CC[C@H]2[C@@H]3CC[C@H]4C[C@](O)(CC)CC[C@]4(C)[C@H]3CC[C@]12C", "1 to 100 nM"]
]}
